Each entry below carries its recorded folding stability dG.
B1: 2K2A (parent)
chain: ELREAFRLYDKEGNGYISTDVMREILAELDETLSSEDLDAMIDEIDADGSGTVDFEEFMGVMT

Variants of: B1
Test: folding stability dG (cDNA display proteolysis); higher = more stable
Settings: PBS, room temperature
Please reply with the bare figure in kcal/mol and do not write the unit itself.

Solved entries (count: 5):
| variantString | uom | folding stability dG |
| --- | --- | --- |
| M62C | kcal/mol | 1.81 |
| R3K | kcal/mol | 1.86 |
| E28D | kcal/mol | 1.78 |
| D46N | kcal/mol | 1.46 |
| E24Q | kcal/mol | 2.48 |

Entry `G15Q` ; folding stability dG = 0.45
